Where do these numbers come from? They come from PubChem BioAssay (NCI).

Test system: SK-MEL-28 melanoma
ASSAY_COMMENT: NCI tumour cell line growth inhibition, 48 h; in the data active means GI50 below about 0.43 µM; inactive means the rest
Lab note: assign the record to one of 1 (active), -1 (inactive)

Query: Write down the call the test reported for this molecule. Item: CC[C@@]1(OC(=O)CN)C(=O)OCc2c1cc1n(c2=O)Cc2c-1nc1cc3c(cc1c2CCl)OCO3
Response: -1

Query: What was the test verdict on CCOc1ccc2c(c1)C(=O)c1c-2n(CCCBr)c(=O)c2cc([N+](=O)[O-])ccc12 ?
Response: -1

Query: Fill in: this test's call for O=C(Nc1ccc(-n2ccc3c(NC(=O)c4ccccc4)ncnc32)cc1)c1cccc(C(F)(F)F)c1 is ___
Response: -1

Query: Hi team, can someone confirm the assay call for NS(=O)(=O)c1ccc(N2N=C3c4ccccc4CC3C2c2cccs2)cc1 (stereo not drawn) ?
Response: -1

Query: Per the assay record, what outcome was assigned to COC(=O)c1cc2c(cc1Cl)SC1=NN(C)S(=O)N1S2(=O)=O (stereo not drawn) ?
Response: -1

Query: What is the recorded call for this molecule in the test? CN1CCN(CCOc2ccc(-c3cnc4c(-c5cccc(F)c5)cnn4c3)cc2)CC1
Response: -1

Query: Could you kindly confirm the outcome this assay logged for C#CCNC(=S)N/N=C(\C)c1ccccn1 ?
Response: -1

Query: Test call for this molecule, please: CCN1CCN(Cc2ccc(NC(=O)Nc3nc4ccc(Oc5ccnc(C(=O)NC)c5)cc4s3)cc2C(F)(F)F)CC1
Response: -1

Query: What did the test return for Cc1ncc(C(=O)Nc2ccc(CN3CCN(C)CC3)c(C(F)(F)F)c2)cc1C#Cc1ccc(N)nc1 ?
Response: 1

Query: Tell me the recorded outcome of this test for COc1ccc(/C=C/C(=O)c2ccc(-n3cc(CN4CCN(c5cc6c(cc5F)c(=O)c(C(=O)O)cn6C5CC5)CC4)nn3)cc2)cc1OC .
Response: -1

Query: Fill in: this test's call for NS(=O)(=O)c1ccc(N=Nc2c(O)[nH]c3ccc(C(=O)NCc4ccncc4)cc23)cc1 is ___
Response: -1

Query: Call for entry CCOC(=O)c1c(C)n(Cc2ccc(Cl)cc2Cl)c2c1cc1oc(=O)c(=O)n3cnc2c13 :
Response: -1

Query: For O=C1C2=C(C(=O)c3cnccc31)C1C=CC2CC1 (stereo not drawn) , what call appears in the results of this test?
Response: -1

Query: Would you mind telling me which call this test gave CCn1c(-c2cc3c([nH]c4ccccc43)c(-c3cccc(O)c3)n2)n[nH]c1=S ?
Response: -1

Query: Returns: the outcome recorded for Cc1ccc2nc(-c3ccc(OCC(=O)N=Nc4c(O)[nH]c5ccccc45)cc3)[nH]c2c1 in this assay.
Response: -1

Query: So what was the verdict on CCCCCCCC(=O)OCCCC1[C@]2(C)CC[C@@]3(C)C([C@H](C)CCC=C(C)C)CC[C@]3(C)C2CC[C@]12OC2(C)C (stereo partly drawn) in this test?
Response: -1

Query: I would be grateful if you could indicate the recorded call for Cc1cc(Nc2nc(C(=O)Nc3ccccc3)nc3ccccc23)n[nH]1 .
Response: -1

Query: Outcome? CC(C)c1nc(N(C)S(C)(=O)=O)nc(-c2ccc(F)cc2)c1/C=C/[C@@H](O)C[C@@H](O)CC(=O)O
Response: -1
